- target.of.assay: rat NMUR2 (rat, UniProt Q9ESQ4 1-395)
- Sequence (Q9ESQ4 whole entry): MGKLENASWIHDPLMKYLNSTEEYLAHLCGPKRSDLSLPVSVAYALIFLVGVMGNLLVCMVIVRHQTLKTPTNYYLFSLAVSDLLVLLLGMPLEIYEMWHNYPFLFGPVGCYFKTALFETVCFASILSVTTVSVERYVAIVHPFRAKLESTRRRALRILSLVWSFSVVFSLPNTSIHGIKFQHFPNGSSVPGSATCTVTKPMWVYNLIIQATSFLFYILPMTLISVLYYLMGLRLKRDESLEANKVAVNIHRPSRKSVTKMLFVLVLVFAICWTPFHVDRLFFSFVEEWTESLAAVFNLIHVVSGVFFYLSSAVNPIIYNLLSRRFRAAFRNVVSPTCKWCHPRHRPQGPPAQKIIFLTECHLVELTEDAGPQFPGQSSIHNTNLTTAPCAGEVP
- measurement.notes: cell-based or functional assay
Starred links: 1 amine or outer side, 2 acyl side, 3 side chain; linkers in the order of their positions; H or OH if unused. Non-standard residues stand in square brackets, D forms with d. No end group written: not given here. *: point of attachment. Ttds = 1-amino-4,7,10-trioxa-13-tridecanamine succinimic acid spacer, O=C(CCC(=O)[*:2])NCCCOCCOCCOCCCN[*:1]; (PEG)2 40 kDa = branched PEG of 40 kDa linked via the Cys side-chain thiol (code C2 = Cys(PEG)2 40 kDa); Cholesteroyl = cholesterol linked to a cysteine residue via the side-chain thiol; Succinimide(1-Et,3-yl) = CCN1C(=O)CC(*)C1=O; Palmitoyl = CCCCCCCCCCCCCCCC(=O)*
outcome.measure: % Activity (FLIPR) (%)
Give just the numeric value; % need not be written.

Task item: Provide one value: measured % Activity (FLIPR) of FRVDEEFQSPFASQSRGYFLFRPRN-NH2 (not fully specified (N-terminus)) [NMU1]
Reply: 87.1

Task item: Name the recorded % Activity (FLIPR) of the item Ac-C((PEG)2 40 kDa)ASQSRGYFLFRPRN-NH2 [NMU18] in your answer.
Reply: 96.7

Task item: Give me measured % Activity (FLIPR), please, for this binder: Ac-C(Cholesteroyl)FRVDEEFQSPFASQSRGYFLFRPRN-NH2 [NMU10]
Reply: 97.4

Task item: State its % Activity (FLIPR): Ac-C((PEG)2 40 kDa)[Ttds]FLFRPRN-NH2 [NMU16]
Reply: 86.9

Task item: Note % Activity (FLIPR) for the binder shown: Palmitoyl-C(Succinimide(1-Et,3-yl))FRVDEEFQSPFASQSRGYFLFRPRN-NH2 [NMU24]
Reply: 52.2

Task item: Recall and state the measured % Activity (FLIPR) for Ac-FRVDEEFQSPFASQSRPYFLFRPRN-NH2 [NMU5] .
Reply: 100
